Source of measurements: ChEMBL document CHEMBL1128059

ASSAY_REMARKS: Inhibitory activity against aminopeptidase
The threshold is 20 nM. Values of IC50 beneath it are tagged true (1); values meeting or exceeding it are tagged false (0).

Illustrative cases are given below, each with its answer.
{"columns": ["COMPOUND_STRING", "LABEL"],
 "data": [
  ["O=C(C[C@@H](Cc1ccccc1)C(=O)N[C@@H](CC1CCCCC1)C(=O)O)NO", "false (0)"],
  ["C[C@H](NC(=O)[C@@H](CC(=O)O)Cc1ccccc1)C(=O)O", "false (0)"],
  ["O=C(C[C@@H](Cc1ccccc1)C(=O)N1CCCC[C@H]1C(=O)O)NO", "true (1)"],
  ["C[C@@H](C(=O)O)N(C)C(=O)[C@@H](CC(=O)NO)Cc1ccccc1", "true (1)"],
  ["C[C@H](NC(=O)[C@@H](CC(=O)NO)Cc1ccccc1)C(=O)O", "true (1)"]
]}

[in] Please determine if C[C@H](CS)C(=O)N1CCC[C@H]1C(=O)O is below 20 nM in terms of IC50.
[out] false (0)

[in] Please determine if O=C(C[C@@H](Cc1ccccc1)C(=O)N1CCC[C@@H]1C(=O)O)NO is below 20 nM in terms of IC50.
[out] false (0)

[in] Please determine if O=C(C[C@@H](Cc1ccccc1)C(=O)N1CCC[C@H]1C(=O)O)NO is below 20 nM in terms of IC50.
[out] true (1)
